Assay: In vivo microdialysis pharmacokinetics of LVFX without transporter inhibitors
Parameters: species or system rat
Settings: rat, brain ECF, iv, 50 mg/kg, pH 9, brain ECF; Group 3: physiological saline alkalinized with NaOH (pH 9.0–9.2) + LVFX 50 mg/kg; mean ± SD, n=3
quantity-measured: Cmax

C[C@H]1COc2c(N3CCN(C)CC3)c(F)cc3c(=O)c(C(=O)O)cn1c23 [LVFX, Levofloxacin] ... 2540 ng/mL

* * *

Experiment: In vivo microdialysis pharmacokinetics of LVFX without transporter inhibitors
Design: species or system rat
Conditions: rat, CSF / blood (unbound, microdialysate), intravenous; AUCu,CSF/AUCu,blood; control group, LVFX 50 mg/kg tail vein, no inhibitor; N=12; read-out: K p,uu,CSF
quantity-measured: Kp

C[C@H]1COc2c(N3CCN(C)CC3)c(F)cc3c(=O)c(C(=O)O)cn1c23 [LVFX, Levofloxacin] ... 0.412

* * *

Test: In vivo microdialysis pharmacokinetics of LVFX without transporter inhibitors
Design: species or system rat
Details: rat, blood (microdialysate, unbound), iv, 50 mg/kg, blood; Group 4: LVFX 50 mg/kg alone; mean ± SD, n=3; read-out: AUC0–180 (converted)
quantity-measured: AUC(0-t) (ng·h/mL)

C[C@H]1COc2c(N3CCN(C)CC3)c(F)cc3c(=O)c(C(=O)O)cn1c23 [LVFX, Levofloxacin] ... 10200

* * *

Assay: In vivo microdialysis pharmacokinetics of LVFX without transporter inhibitors
Design: species or system rat
Details: rat, blood (microdialysate, unbound), iv, 50 mg/kg, pH 9, blood; Group 3: physiological saline alkalinized with NaOH (pH 9.0–9.2) + LVFX 50 mg/kg; mean ± SD, n=3
quantity-measured: half-life (min)

C[C@H]1COc2c(N3CCN(C)CC3)c(F)cc3c(=O)c(C(=O)O)cn1c23 ... 45.3

* * *

Experiment: In vivo microdialysis pharmacokinetics of LVFX without transporter inhibitors
Design: species or system rat
Conditions: rat, CSF (lateral ventricle microdialysate), iv, 50 mg/kg, CSF; Group 4: LVFX 50 mg/kg alone; mean ± SD, n=3
quantity-measured: Cmax (ng/mL)

C[C@H]1COc2c(N3CCN(C)CC3)c(F)cc3c(=O)c(C(=O)O)cn1c23 ... 3480

* * *

System: Multidrug resistance-associated proteins (MRPs)
Experiment: In vivo microdialysis pharmacokinetics of LVFX with MRPs inhibitor MK571
Parameters: species or system rat
Settings: rat, brain ECF (hippocampal microdialysate, unbound), intravenous, with MK571 20 mg/kg i.p., 30 min before LVFX; brain ECF; MK571 group, MK571 20 mg/kg i.p. + LVFX 50 mg/kg; mean ± SD, N=5; read-out: AUC0–180 (converted)
quantity-measured: AUC(0-t) (ng·h/mL)

C[C@H]1COc2c(N3CCN(C)CC3)c(F)cc3c(=O)c(C(=O)O)cn1c23 ... 5080

* * *

Assay: In vivo microdialysis pharmacokinetics of LVFX without transporter inhibitors
Parameters: species or system rat
Details: rat, CSF (lateral ventricle microdialysate), iv, 50 mg/kg, CSF; Group 1: vehicle solution of Tariquidar/Ko143 + LVFX 50 mg/kg; mean ± SD, n=3
quantity-measured: Cmax (ng/mL)

C[C@H]1COc2c(N3CCN(C)CC3)c(F)cc3c(=O)c(C(=O)O)cn1c23 [LVFX, Levofloxacin] ... 3540
